Tested on: PC-3 prostate cells
Conditions: read-out: IC50, nM (Mean ± SEM); PC-3, 72h, MTT
readout: IC50 (nM)
Answers are plain numbers, in nM.

Tested on PC-3 prostate cells, the item `COc1ccc(-c2cnc(-c3ccncc3-c3cccc(OC)c3)o2)cc1` showed IC50 equal to 105

* * *

Test system: MV-4-11 leukemia cells
Conditions: read-out: IC50, nM (Mean ± SEM); MV-4-11, 72h, MTT
readout: IC50 (nM)
Answers are plain numbers, in nM.

Tested on MV-4-11 leukemia cells, the item `COc1ccc(-c2cnc(-c3ccncc3-c3cccc(OC)c3)o2)cc1` showed IC50 equal to 193

* * *

System: U266 myeloma cells
Settings: read-out: IC50, nM (Mean ± SEM); U266, 72h, MTT
readout: IC50 (nM)
Give bare numbers, in nM.

Item: `COc1ccc(-c2cnc(-c3ccncc3-c3cccc(OC)c3)o2)cc1` | IC50: 70.1

* * *

Tested on: MM.1S myeloma cells
Conditions: read-out: IC50, nM (Mean ± SEM), 72h, MTT
readout: IC50 (nM)
Numbers only, in nM.

Item: `COc1ccc(-c2cnc(-c3ccncc3-c3cccc(OC)c3)o2)cc1` | IC50: 162

* * *

System: MCF-7 breast cells
Conditions: read-out: IC50, nM (Mean ± SEM); MCF-7, 72h, MTT
readout: IC50 (nM)
Answers are plain numbers, in nM.

Item: COc1ccc(-c2cnc(-c3ccncc3-c3cccc(OC)c3)o2)cc1 [PC-046, 5-(4-methoxyphenyl)pyridine-4-yl] | IC50: 166
